Collected logP values appear next to each entry.
# measurement description: Partition coefficient (logP)
# Format: physicochemical
# condition: octanol/water
The reply should be a number, written without any unit.

Identify logP associated with the compound CO/N=C(\Cl)C12CCCN(CC1)C2 (stereo unspecified)
2.12

Identify logP associated with the compound CO/N=C(\C#N)C12CCCN(CC1)C2 (stereo unspecified)
1.49

Identify logP associated with the compound CO/N=C(\C#N)C1CN2CCC1CC2 (stereo unspecified)
1.56

###

Collected log10(IC50) values appear next to each entry.
# tested system: Muscarinic acetylcholine receptor
# measurement description: In vitro inhibition of [3H]quinuclidinyl benzilate (QNB) binding to muscarinic receptors of rat cerebral cortex
# Assay type: tissue-based
Each number you see is log10 of IC50, and the unit inside the log is nM.

Identify log10(IC50) associated with the molecule CO/N=C(\F)[C@H]1CN2CC[C@H]1C2
3.49

Identify log10(IC50) associated with the molecule CO/N=C(\F)C1CN2CCC1CC2 (stereo not given)
3.30

Identify log10(IC50) associated with the molecule CO/N=C(\Cl)C12CCCN(CC1)C2 (stereo not given)
3.48

Identify log10(IC50) associated with the molecule CO/N=C(\C#N)C1CN2CCC1CC2 (stereo not given)
2.67

Identify log10(IC50) associated with the molecule CO/N=C(\C#N)C12CCCN(CC1)C2 (stereo not given)
2.34

More entries:
Identify log10(IC50) associated with the molecule CO/N=C(\Br)[C@H]1CN2CC[C@H]1C2
3.48

Identify log10(IC50) associated with the molecule CO/N=C(\Br)C12CCCN(CC1)C2 (stereo not given)
3.36

Identify log10(IC50) associated with the molecule CO/N=C(\Cl)[C@H]1CN2CC[C@H]1C2
3.48

Identify log10(IC50) associated with the molecule CO/N=C(\C#N)[C@H]1CN2CCC1C2 (stereo not given in full)
3.36

Identify log10(IC50) associated with the molecule CO/N=C(\Cl)C12CCN(CC1)C2
3.93

Identify log10(IC50) associated with the molecule CO/N=C(\Br)C12CCN(CC1)C2
3.91

Identify log10(IC50) associated with the molecule CO/N=C(\F)C12CCN(CC1)C2
4.19

Identify log10(IC50) associated with the molecule CO/N=C(\Cl)C1CN2CCC1CC2 (stereo not given)
3.04

Identify log10(IC50) associated with the molecule CO/N=C(\C#N)C12CCN(CC1)C2
3.29

Identify log10(IC50) associated with the molecule CO/N=C(\F)C12CCCN(CC1)C2 (stereo not given)
3.38

Data provenance is ChEMBL document CHEMBL1126441.
